tested on: MCF7 3D spheroids; test: Cytotoxicity on MCF7 3D multicellular spheroids (acid phosphatase method); settings: Homo sapiens, MCF7, 120 h, read-out: Mean of % cytotoxicity ± S.D
Threshold check on cytotoxicity at 50 µM: strictly below 40% is Y; on or above 40% is N.

| compound-string | assigned-class |
| --- | --- |
| O=C1NC(=O)C(=Cc2ccncc2)C(=O)N1 | N |
| COC(=O)C(C#N)=Cc1cccn1-c1ccc(C(F)(F)F)cc1 | N |
| CCOC(=O)c1ccc(-n2c(=S)[nH]c3ccccc32)cc1 | Y |
| O=C(O)c1nccnc1C(=O)Nc1ccccc1N1CCOCC1 | N |

Given `O=[N+]([O-])c1cc(C(F)(F)F)ccc1-n1ccc(C(F)(F)F)n1` , is recorded cytotoxicity at 50 µM strictly lower than 40%?
Y

Given `Cc1nnsc1-c1nnc(-c2ccccc2C(F)(F)F)o1` , is recorded cytotoxicity at 50 µM strictly lower than 40%?
Y

###

Known Cytotoxic effect% ± SD RPE1(50µM) of a selection of compounds
tested on: hTERT-RPE1 3D spheroids; assay: Cytotoxicity on normal RPE1 3D spheroids (acid phosphatase method); type: cell-based, human; settings: 120 h
Note: unit % is implicit; provide only the numeric part.

Worked set:
| compound-string | measured-on | reported |
| --- | --- | --- |
| COC(=O)c1cc(C=C(C#N)C#N)c(OC)cc1OC | hTERT-RPE1 3D spheroids | 41.2 |
| O=C(NCCc1c[nH]c2ccccc12)Nc1ccc(Cl)cc1 | hTERT-RPE1 3D spheroids | 39.4 |
| COc1ccc(OCCC(=O)NNC(=S)Nc2cc(Cl)ccc2Cl)cc1 | hTERT-RPE1 3D spheroids | 18.4 |
| Nc1ccccc1SCC=CCSc1ccccc1N | hTERT-RPE1 3D spheroids | 18.3 |

Now let's try a different one.
Could you share which Cytotoxic effect% ± SD RPE1(50µM) value was measured for `CCOC(=O)c1c(NS(=O)(=O)c2cccc3nsnc23)sc(C)c1C` ?
34.4

###

system: MCF7 3D spheroids; test: Cytotoxicity on MCF7 3D multicellular spheroids (acid phosphatase method); details: Homo sapiens, MCF7, 120 h, read-out: Mean of % cytotoxicity ± S.D
Labels assigned by cytotoxicity at 50 µM range: lower = under 30%, middle = from 30% up to 50%, upper = 50% and over

Field: example entries. Status: answers known.
| molecule | assigned-class |
| --- | --- |
| N#CCc1ccc(NC(=O)Nc2ccc(OC(F)(F)F)cc2)cc1 | upper |
| O=C(NNC(=O)c1ccc(OC(F)(F)F)cc1)c1ccc(Cl)cc1 | upper |
| Clc1ccc(CSc2ncnc3c2sc2nnc(-c4ccccc4)c(-c4ccccc4)c23)cc1 | middle |

Sort into band: `Cc1cc(Br)c(NC(=O)C(Cl)Cl)c(Br)c1`
middle

Sort into band: `Clc1ccc(OCCCCCCCCCCOc2ccc(Cl)cc2)cc1`
lower

Sort into band: `COC(=O)c1cc(C=C(C#N)C#N)c(OC)cc1OC`
upper

Sort into band: OC(CSc1ccccc1)CN1CCN(c2nccc(C(F)(F)F)n2)CC1 (centres unmarked)
upper

Sort into band: `NS(=O)(=O)c1cccc(NC(=O)Nc2ccccc2)c1`
upper

Sort into band: `CC(=O)Nc1ccc(NC(=O)c2nccnc2C(=O)O)cn1`
lower

Sort into band: `O=C(SCc1cccc(C(F)(F)F)c1)c1ccc(Cl)c(Cl)c1`
middle

Sort into band: `O=C1CNC(=S)N1CCOc1ccc(Cl)cc1`
middle

Sort into band: `Cn1c(=NN=c2oc3ccccc3n2C)oc2ccccc21`
lower

###

Known cytotoxicity at 50 µM of a selection of compounds
system: MCF7 3D spheroids; test: Cytotoxicity on MCF7 3D multicellular spheroids (acid phosphatase method); settings: Homo sapiens, MCF7, 120 h, read-out: Mean of % cytotoxicity ± S.D
Note: unit % is implicit; provide only the numeric part.

Worked set:
| compound | cytotoxicity at 50 µM (%) |
| --- | --- |
| O=[N+]([O-])c1ccc2nc(-c3ccccc3)c(-c3ccccc3)nc2c1 | -8 |
| CC(=O)Nc1ccc(C=C(C#N)C(N)=O)cc1 | 60.8 |
| CN(C)C=C1Cc2ccccc2C1=O | 41.4 |

Now let's try a different one.
Field: cytotoxicity at 50 µM (MCF7 3D spheroids). Entry: Nc1ccc(-c2ccc(N)c([N+](=O)[O-])c2)cc1[N+](=O)[O-] [A06, 3,3'-dinitro[1,1'-biphenyl]-4,4'-diamine]
60.8

###

test system: MCF7 3D spheroids; assay: Cytotoxicity on MCF7 3D multicellular spheroids (acid phosphatase method); conditions: Homo sapiens, MCF7, 120 h, read-out: Mean of % cytotoxicity ± S.D
Each entry gets 0 (no) if its cytotoxicity at 50 µM stays under 50%, and 1 (yes) if its cytotoxicity at 50 µM is 50% or above.

Field: example entries. Status: answers known.
| compound | measured-on | assigned-class |
| --- | --- | --- |
| O=C(NNC1=Nc2ccccc2SC1)c1ccc(F)cc1 [G06] | MCF7 3D spheroids | 1 (yes) |
| CC(=O)c1ccccc1OC(=O)c1ccc([N+](=O)[O-])o1 [C08, 2-acetylphenyl 5-nitro-2-furoate] | MCF7 3D spheroids | 0 (no) |

cytotoxicity at 50 µM >= 50% for Cn1c(SCC(=O)NN2CC(=O)N(c3cccc(Cl)c3)CC2=O)nnc1-c1ccncc1 [G02] ?
0 (no)

cytotoxicity at 50 µM >= 50% for CC1(C)C=Cc2cc(C(N)=NOC(=O)c3cccc(C(F)(F)F)c3)ccc2O1 [E10] ?
1 (yes)

cytotoxicity at 50 µM >= 50% for CC1(C)CC(=O)C2=C(C1)OC(N)=C(C#N)C2c1ccc(Cl)cc1 (stereo not shown) [E11] ?
1 (yes)

cytotoxicity at 50 µM >= 50% for O=C(NCCc1ccncc1)C(F)(F)F [B03] ?
0 (no)

cytotoxicity at 50 µM >= 50% for COc1ccc(NNC(=O)c2c(-c3c(F)cccc3Cl)noc2C)cc1 [D10] ?
1 (yes)

cytotoxicity at 50 µM >= 50% for COc1c(Cl)cc([N+](=O)[O-])c(OC)c1C(=O)O [D06] ?
0 (no)

cytotoxicity at 50 µM >= 50% for Cc1cccc(C)c1NC(=O)COC(=S)c1sc2ccccc2c1Cl [A07] ?
1 (yes)

###

test system: MCF7 3D spheroids; experiment: Cytotoxicity on MCF7 3D multicellular spheroids (acid phosphatase method); details: Homo sapiens, MCF7, 120 h, read-out: Mean of % cytotoxicity ± S.D
Known cytotoxicity at 50 µM of a selection of molecules
Note: unit % is implicit; provide only the numeric part.

| molecule | reported |
| --- | --- |
| COc1ccc(Cl)cc1NC(=O)Nc1ccc(N2CCCCC2)cc1 [E09] | 50.7 |
| CC(=O)Nc1ccc(-c2ccccc2)cc1 [D05, N-[1,1'-biphenyl]-4-ylacetamide] | 50.9 |
| O=C1C2CC=CCC2C(=O)N1c1cccc(N2C(=O)C3CC=CCC3C2=O)n1 (centres unmarked) [F04] | 29.8 |
| CC(C)(C)SCCNc1nc(Oc2ccc(F)cc2)nc(Oc2ccc(F)cc2)n1 [E03] | 41.8 |
| CCOC(=O)N1CCC(=NNc2ccc([N+](=O)[O-])cc2[N+](=O)[O-])CC1 [H10] | 60.6 |

Could you share which cytotoxicity at 50 µM value was measured for O=C(O)c1ccc(-c2ccsc2)cc1 [H06, 4-(3-thienyl)benzoic acid] ?
26.1

Could you share which cytotoxicity at 50 µM value was measured for COc1cc(-n2c(S)nnc2CCc2nc(-c3ccc(Cl)cc3)no2)c(OC)cc1Cl [D07] ?
50.1

Could you share which cytotoxicity at 50 µM value was measured for COc1cc(C(F)(F)F)nc2ccc(C#CCOC(=O)c3ccccc3)cc12 [G03] ?
21.3

Could you share which cytotoxicity at 50 µM value was measured for O=C(NCCc1c[nH]c2ccccc12)Nc1ccc(Cl)cc1 [D08] ?
74

Could you share which cytotoxicity at 50 µM value was measured for CC(C)N1CC(COc2ccc(Br)cc2)OC1=O (centres unmarked) [H08] ?
49

Could you share which cytotoxicity at 50 µM value was measured for Cc1nc(-c2ccc(S(=O)(=O)Nc3ccc4c(c3)OCCO4)s2)cs1 [G04] ?
6.3

Could you share which cytotoxicity at 50 µM value was measured for NNC(=O)Cc1ccccc1 [B10, 2-phenylacetohydrazide] ?
48.2

Could you share which cytotoxicity at 50 µM value was measured for CS(=O)(=O)CC(N)=S [H05, 2-(methylsulfonyl)ethanethioamide] ?
19.3

Could you share which cytotoxicity at 50 µM value was measured for Nc1ccccc1SCC=CCSc1ccccc1N [C02] ?
87.3

Could you share which cytotoxicity at 50 µM value was measured for NS(=O)(=O)c1ccc(NNC(=O)c2cccs2)cc1 [E07] ?
36.2

Could you share which cytotoxicity at 50 µM value was measured for Cc1nn(-c2ccccc2)nc1C(=O)Nc1cc(Cl)cc(Cl)c1 [A03] ?
39.1

Could you share which cytotoxicity at 50 µM value was measured for O=C(Nc1cccc(-c2ncon2)c1)C(Cl)(Cl)Cl [D03] ?
23.5

Could you share which cytotoxicity at 50 µM value was measured for COc1ccc(C(=O)NCc2ccco2)cc1OC [C06, N-(2-furylmethyl)-3,4-dimethoxybenzamide] ?
35.8

Could you share which cytotoxicity at 50 µM value was measured for Cc1ncc(CO)c(C=NO)c1O [B04] ?
49.3
